B1: LINE1-full (parent)
chain: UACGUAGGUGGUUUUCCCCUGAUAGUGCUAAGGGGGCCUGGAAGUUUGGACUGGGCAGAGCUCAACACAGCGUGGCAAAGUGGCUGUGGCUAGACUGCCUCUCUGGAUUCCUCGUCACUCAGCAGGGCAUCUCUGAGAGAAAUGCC

Variants of: B1
Assay: self-cleavage, relative activity (ratio to wild type); higher = more cleavage; in vitro, sequencing; the parent is a self-cleaving ribozyme
This section presents variants with their documented self-cleavage values.
Please give only the number in your answer, with no unit.

As a guide, the following entries are already answered.
# variant.description, self-cleavage
records = [
    ("U100A C111A", 1.19),
    ("A31G C37U", 1.6),
    ("U1C U109A", 2.04),
    ("G36A A64G", 0.13),
    ("U73C U112C", 1.65),
    ("G126A A140G", 1.49),
    ("U73C G125A", 0.8),
    ("G40A A59G", 0.06),
]

Entry U20C U46G : reported self-cleavage = ?
1.52

Consider next the variant A69G C120U in the same way.
0.44

Consider next the variant U20C A65G in the same way.
0.06
